All figures here come from patent US11541107B2.

Test system: HLA-A*24
Experiment: MHC binding assay, UV-ligand exchange with beta2m ELISA, HLA-A*24
Design: species or system human
Settings: binding to HLA-A*24 ranged by peptide exchange yield (UV-ligand exchange, beta2m ELISA)
Recorded Metric: Peptide exchange

Worked cases, answers included:
[
  {
    "Substance": "269 (QYPYLQAFF; listed as Homo sapiens) [compound 269]",
    "Target Of Assay": "HLA-A*24",
    "Peptide exchange": "+++ (50%-75% = +++)"
  },
  {
    "Substance": "383 (RYKPGEPITF; listed as Homo sapiens) [compound 383]",
    "Target Of Assay": "HLA-A*24",
    "Peptide exchange": "+++ (50%-75% = +++)"
  },
  {
    "Substance": "280 (TYNPNLQDKL; listed as Homo sapiens) [compound 280]",
    "Target Of Assay": "HLA-A*24",
    "Peptide exchange": "++++ (>=75% = ++++)"
  },
  {
    "Substance": "291 (YYLGSGRETF; listed as Homo sapiens) [compound 291]",
    "Target Of Assay": "HLA-A*24",
    "Peptide exchange": "+++ (50%-75% = +++)"
  },
  {
    "Substance": "306 (VYPAEQPQI; listed as Homo sapiens) [compound 306]",
    "Target Of Assay": "HLA-A*24",
    "Peptide exchange": "+++ (50%-75% = +++)"
  }
]

QUERY: Need Peptide exchange, item 235 (VYKDSIYYI; listed as Homo sapiens) [compound 235]
RESULT: +++ (50%-75% = +++)

QUERY: Same question, 105 (IYNETITDLL; listed as Homo sapiens) [compound 105] this time
RESULT: +++ (50%-75% = +++)

QUERY: Next entry: 161 (KYPDIVQQF; listed as Homo sapiens) [compound 161]
RESULT: +++ (50%-75% = +++)

QUERY: Record: 353 (TYGKIDLGF; listed as Homo sapiens) [compound 353]
RESULT: +++ (50%-75% = +++)

QUERY: Next: 255 (VYQKIILKF; listed as Homo sapiens) [compound 255]
RESULT: +++ (50%-75% = +++)

QUERY: Also, 175 (LYSPVPFTL; listed as Homo sapiens) [compound 175] please.
RESULT: +++ (50%-75% = +++)

QUERY: Can you handle 211 (VFKSEGAYF; listed as Homo sapiens) [compound 211] next?
RESULT: ++++ (>=75% = ++++)

QUERY: Please give the result for 314 (RYFKGDYSI; listed as Homo sapiens) [compound 314] too.
RESULT: +++ (50%-75% = +++)

* * *

Tested on: HLA-A*24
Assay: MHC binding assay, UV-ligand exchange with beta2m ELISA, HLA-A*24
Set-up: species or system human
Conditions: binding to HLA-A*24 ranged by peptide exchange yield (UV-ligand exchange, beta2m ELISA)
Recorded Metric: Peptide exchange

[
  {
    "Substance": "136 (IYPEWPVVFF; listed as Homo sapiens) [compound 136]",
    "Observed Measurement": "+++ (50%-75% = +++)"
  },
  {
    "Substance": "110 (SYPKIIEEF; listed as Homo sapiens) [compound 110]",
    "Observed Measurement": "+++ (50%-75% = +++)"
  },
  {
    "Substance": "141 (SYNGHLTIWF; listed as Homo sapiens) [compound 141]",
    "Observed Measurement": "+++ (50%-75% = +++)"
  }
]

* * *

Biological target: HLA-A*02 (Homo sapiens, UniProt P04439, D140Y/D185E/D98H/E176V/E277Q/G131W/G231S/I119V/I121R/I166T/I218V/L300P/N151K/N90K/P208A/P217A/Q86G/Q94H/R138H/R169H)
Assay: MHC binding assay, UV-ligand exchange with beta2m ELISA, HLA-A*02
Details: binding to HLA-A*02 ranged by peptide exchange yield (UV-ligand exchange, beta2m ELISA)

[
  {
    "Substance": "2 (ALYGKLLKL; listed as Homo sapiens) [compound 2]",
    "Peptide exchange": "+++ (50%-75% = +++)"
  },
  {
    "Substance": "24 (FLWNGEDSAL; listed as Homo sapiens) [compound 24]",
    "Peptide exchange": "+++ (50%-75% = +++)"
  },
  {
    "Substance": "46 (SLAKHGIVAL; listed as Homo sapiens) [compound 46]",
    "Peptide exchange": "+++ (50%-75% = +++)"
  },
  {
    "Substance": "6 (FLDPAQRDL; listed as Homo sapiens) [compound 6]",
    "Peptide exchange": "+++ (50%-75% = +++)"
  }
]

* * *

System: HLA-A*24
Test: MHC binding assay, UV-ligand exchange with beta2m ELISA, HLA-A*24
Design: species or system human
Settings: binding to HLA-A*24 ranged by peptide exchange yield (UV-ligand exchange, beta2m ELISA)
Recorded Metric: Peptide exchange

Consider the reported Peptide exchange for these substances:
[
  {
    "Substance": "347 (VYAEVNSL; listed as Homo sapiens) [compound 347]",
    "Peptide exchange": "+++ (50%-75% = +++)"
  },
  {
    "Substance": "221 (KYIGNLDLL; listed as Homo sapiens) [compound 221]",
    "Peptide exchange": "++++ (>=75% = ++++)"
  },
  {
    "Substance": "354 (VYNEQIRDLL; listed as Homo sapiens) [compound 354]",
    "Peptide exchange": "+++ (50%-75% = +++)"
  },
  {
    "Substance": "365 (VFIDHPVHL; listed as Homo sapiens) [compound 365]",
    "Peptide exchange": "++++ (>=75% = ++++)"
  },
  {
    "Substance": "176 (FYINGQYQF; listed as Homo sapiens) [compound 176]",
    "Peptide exchange": "+++ (50%-75% = +++)"
  }
]

QUERY: Given the substance 349 (QYSIISNVF; listed as Homo sapiens) [compound 349] , what is its reported Peptide exchange?
RESULT: +++ (50%-75% = +++)

QUERY: Next record, please: 155 (IYKWITDNF; listed as Homo sapiens) [compound 155]
RESULT: ++++ (>=75% = ++++)

* * *

Target: HLA-A*02 (Homo sapiens, UniProt P04439, D140Y/D185E/D98H/E176V/E277Q/G131W/G231S/I119V/I121R/I166T/I218V/L300P/N151K/N90K/P208A/P217A/Q86G/Q94H/R138H/R169H)
Assay: MHC binding assay, UV-ligand exchange with beta2m ELISA, HLA-A*02
Conditions: binding to HLA-A*02 ranged by peptide exchange yield (UV-ligand exchange, beta2m ELISA)
Recorded Metric: Peptide exchange

Recorded Peptide exchange, per entry:
[
  {
    "Substance": "85 (STLDGSLHAV; listed as Homo sapiens) [compound 85]",
    "Peptide exchange": "+++ (50%-75% = +++)"
  },
  {
    "Substance": "37 (ALINDILGELVKL; listed as Homo sapiens) [compound 37]",
    "Peptide exchange": "+++ (50%-75% = +++)"
  },
  {
    "Substance": "18 (YVLNEEDLQKV; listed as Homo sapiens) [compound 18]",
    "Peptide exchange": "+++ (50%-75% = +++)"
  },
  {
    "Substance": "52 (ELLSSIFFL; listed as Homo sapiens) [compound 52]",
    "Peptide exchange": "+++ (50%-75% = +++)"
  },
  {
    "Substance": "56 (KILDLTRVL; listed as Homo sapiens) [compound 56]",
    "Peptide exchange": "++ (20%-49% = ++)"
  }
]

QUERY: Field request: Peptide exchange | item: 27 (KVFGDLDQV; listed as Homo sapiens) [compound 27]
RESULT: +++ (50%-75% = +++)

QUERY: Do the same for 40 (SLLALPQDLQA; listed as Homo sapiens) [compound 40] please
RESULT: +++ (50%-75% = +++)

QUERY: Item: 41 (FVLPLVVTL; listed as Homo sapiens) [compound 41]
RESULT: +++ (50%-75% = +++)

QUERY: Record: 339 (VLGPGPPPL; listed as Homo sapiens) [compound 339]
RESULT: ++ (20%-49% = ++)

QUERY: Also check 335 (VLLAAGPSAA; listed as Homo sapiens) [compound 335]
RESULT: ++ (20%-49% = ++)

QUERY: What would you report for 77 (IVLSTIASV; listed as Homo sapiens) [compound 77] ?
RESULT: +++ (50%-75% = +++)

QUERY: Item: 76 (ILLDESNFNHFL; listed as Homo sapiens) [compound 76]
RESULT: +++ (50%-75% = +++)

QUERY: Another: 26 (KVDGVVIQL; listed as Homo sapiens) [compound 26]
RESULT: +++ (50%-75% = +++)
